Data provenance: patent US20230105457A1

Biological target: T1, HLA-A*0201 molecule expressed on human tumor cell line T2 (human)
T1 construct: surface HLA-A2 read with anti-HLA-A2 antibody BB7.2-PE by FACS; also called HLA-A2
Test: T2 cell HLA-A2 stabilisation, FACS; peptide at 3.125 µM
quantity: mean relative fluorescence intensity

{"columns": ["binder", "quantity", "measurement"],
 "data": [
  ["RLSSYLVEI [FOXM1-B]", "mean relative fluorescence intensity", "0 relative (HIV peptide = 100)"],
  ["LMDLSTTEV [FOXM1-B2]", "mean relative fluorescence intensity", "12.7 relative (HIV peptide = 100)"],
  ["GLLGEFLQI [BIRC5-B3]", "mean relative fluorescence intensity", "8.9 relative (HIV peptide = 100)"],
  ["FMLGEFLKL [BIRC5-B1]", "mean relative fluorescence intensity", "22.3 relative (HIV peptide = 100)"],
  ["RVSSYLVPI [FOXM1-H]", "mean relative fluorescence intensity", "0 relative (HIV peptide = 100)"],
  ["YTLGEFLYI [BIRC5-B2]", "mean relative fluorescence intensity", "6.6 relative (HIV peptide = 100)"],
  ["LMDLSTTPL [FOXM1-H2]", "mean relative fluorescence intensity", "0.9 relative (HIV peptide = 100)"],
  ["WLPFGFILI [IL13RA2-H]", "mean relative fluorescence intensity", "3.7 relative (HIV peptide = 100)"],
  ["FLPFGFILV (also called candidate peptide) [IL13RA2-B]", "mean relative fluorescence intensity", "15.7 relative (HIV peptide = 100)"],
  ["LTLGEFLKL [BIRC5-H]", "mean relative fluorescence intensity", "1.4 relative (HIV peptide = 100)"]
]}
